Where do the numbers come from? From patent US20230416256A1.

- experimental_target: recombinant human NF-kappaB-inducing kinase (NIK/MAP3K14) (Homo sapiens)
- Sequence (Q99558 whole entry): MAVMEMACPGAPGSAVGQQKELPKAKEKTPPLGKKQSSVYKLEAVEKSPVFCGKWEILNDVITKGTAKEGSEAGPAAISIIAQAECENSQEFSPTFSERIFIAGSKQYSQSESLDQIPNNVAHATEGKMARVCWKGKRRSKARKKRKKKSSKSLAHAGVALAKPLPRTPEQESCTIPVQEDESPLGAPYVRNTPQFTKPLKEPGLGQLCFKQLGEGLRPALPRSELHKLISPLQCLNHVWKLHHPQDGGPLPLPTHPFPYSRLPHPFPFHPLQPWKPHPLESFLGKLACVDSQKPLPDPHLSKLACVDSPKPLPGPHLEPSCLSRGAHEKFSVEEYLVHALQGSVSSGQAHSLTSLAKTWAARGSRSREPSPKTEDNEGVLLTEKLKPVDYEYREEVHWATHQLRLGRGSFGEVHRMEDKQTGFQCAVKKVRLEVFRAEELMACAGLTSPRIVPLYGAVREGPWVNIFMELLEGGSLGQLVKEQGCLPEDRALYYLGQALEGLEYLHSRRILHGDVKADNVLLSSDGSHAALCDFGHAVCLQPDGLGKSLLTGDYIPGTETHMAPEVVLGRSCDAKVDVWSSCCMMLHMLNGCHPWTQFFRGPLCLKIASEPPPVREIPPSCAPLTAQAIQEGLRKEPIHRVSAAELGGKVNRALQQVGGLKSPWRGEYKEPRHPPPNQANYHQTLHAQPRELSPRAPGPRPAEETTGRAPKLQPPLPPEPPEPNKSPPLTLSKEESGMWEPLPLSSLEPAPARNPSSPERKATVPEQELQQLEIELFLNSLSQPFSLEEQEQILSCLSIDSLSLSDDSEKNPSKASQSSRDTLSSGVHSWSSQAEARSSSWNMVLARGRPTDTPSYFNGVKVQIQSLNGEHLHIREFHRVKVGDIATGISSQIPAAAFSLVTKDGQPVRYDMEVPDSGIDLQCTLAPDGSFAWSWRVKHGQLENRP
- method_summary: Inhibition of auto-phosphorylation of recombinant human NIK/MAP3K14 activity (AlphaScreen)
- protocol_conditions: GST-tagged NIK/MAP3K14 1 nM, 5 μM ATP, 2 h at 25° C.; average of values obtained
observable: IC50

Examples from the recorded data:
- Cc1cc(-c2csc(-c3c[nH]c4nccnc34)n2)cc([C@]2(O)CCN(C)C2=O)c1: ≤ 100 nM
- CN1CC[C@@](O)(c2cccc(-c3nc(-c4ccc5cnn(C)c5c4)cs3)c2)C1=O: > 500 nM
- O=C1N(CC(F)(F)F)CC[C@@]1(O)c1cccc(-c2csc(-c3c[nH]c4nccnc34)n2)c1: > 500 nM

Go through the items and report each one's IC50.
1. O[C@]1(c2cccc(-c3csc(-c4c[nH]c5nccnc45)n3)c2)C=Cn2ccnc21
2. O[C@@]1(c2cccc(-c3csc(-c4c[nH]c5ncccc45)n3)c2)CCn2ccnc21

> 500 nM
≤ 100 nM

For every record below, what is its IC50?
1. CN1CC[C@@](O)(c2cccc(-c3csc(-n4ccc5nc(N)ccc54)n3)c2)C1=O
2. O[C@@]1(c2cccc(-c3csc(-c4c[nH]c5ncccc45)n3)c2)C=Cc2cccnc21 (single isomer, unassigned)
3. CN1CC[C@@](O)(c2cccc(-c3csc(-c4c(F)[nH]c5ncccc45)n3)c2)C1=O

1. > 500 nM
2. ≤ 100 nM
3. 100 to 500 nM
